# Test system: K-562 leukemia
# procedureSummary: NCI-60 one-dose screen, 48 h
# assayContext: 10 µM unless noted
About 83,000 compounds went through this panel and 20% of them were active in at least one assay; those are over-represented in the sample as a whole. The source made the active and inactive calls. Rule for the calls: active = growth percent below 10; inactive = the rest.
I would appreciate it if you answered using one of these outcomes: yes for active, no for inactive

* C#COc1cccc(Nc2c(C#N)cnc3ncc(NC(=O)CCl)cc23)c1 | yes
* Cc1ccc2c(Cn3cc(CSc4nc5ccccc5o4)nn3)cc(=O)oc2c1 | no
* O=C1C(=O)N(Cc2ccc(-c3ccccc3)cc2)c2ccc(OC(F)(F)F)cc21 | no
* COCCNC(=O)Nc1ccc2nc(-c3cccs3)c(-c3cccs3)nc2c1 | no
* COc1cc2cc(NCc3cccc(Cl)c3)nc(C)c2cc1OC | yes
* COC(=O)/C=C1/SC(=Nc2ccc(C(F)(F)F)cc2)N(CCc2c[nH]c3ccc(O)cc23)C1=O | no

### Prompt Record request — test call for c1cc2c(ccc3[nH]c(-c4ccc5[nH]ncc5c4)c4c(c32)CCCC4)n1
### Response yes

### Prompt State the result this test recorded for C=CC[Se]C(=O)Cc1c(C)n(C(=O)c2ccc(Cl)cc2)c2ccc(OC)cc12 .
### Response no

### Prompt Kindly provide the recorded test outcome for the following compound: O=C1c2c(c3c4ccccc4[nH]c3c3ccc4ccccc4c23)C(=O)N1CCN1CCOCC1
### Response no

### Prompt Could you kindly confirm the outcome this assay logged for COc1cc(NS(=O)(=O)c2ccc(-c3cnc(C4CC4)o3)cc2)ccc1F ?
### Response no
